Provide the recorded pEC50 for the entries that follow.
tested-on: CFTR (F508del/MF-HBE cells) (Homo sapiens, UniProt P13569, DEL508-508)
Construct: human bronchial epithelial (HBE) cells derived from CF subjects heterozygous for F508del and a minimal function CFTR mutation (F508del/MF-HBE); endogenous in cells; host or cells: Primary human bronchial epithelial cells from CF subjects (F508del/MF genotype), differentiated at an air-liquid interface
Sequence (P13569 with tags, fused parts or gaps DEL508-508): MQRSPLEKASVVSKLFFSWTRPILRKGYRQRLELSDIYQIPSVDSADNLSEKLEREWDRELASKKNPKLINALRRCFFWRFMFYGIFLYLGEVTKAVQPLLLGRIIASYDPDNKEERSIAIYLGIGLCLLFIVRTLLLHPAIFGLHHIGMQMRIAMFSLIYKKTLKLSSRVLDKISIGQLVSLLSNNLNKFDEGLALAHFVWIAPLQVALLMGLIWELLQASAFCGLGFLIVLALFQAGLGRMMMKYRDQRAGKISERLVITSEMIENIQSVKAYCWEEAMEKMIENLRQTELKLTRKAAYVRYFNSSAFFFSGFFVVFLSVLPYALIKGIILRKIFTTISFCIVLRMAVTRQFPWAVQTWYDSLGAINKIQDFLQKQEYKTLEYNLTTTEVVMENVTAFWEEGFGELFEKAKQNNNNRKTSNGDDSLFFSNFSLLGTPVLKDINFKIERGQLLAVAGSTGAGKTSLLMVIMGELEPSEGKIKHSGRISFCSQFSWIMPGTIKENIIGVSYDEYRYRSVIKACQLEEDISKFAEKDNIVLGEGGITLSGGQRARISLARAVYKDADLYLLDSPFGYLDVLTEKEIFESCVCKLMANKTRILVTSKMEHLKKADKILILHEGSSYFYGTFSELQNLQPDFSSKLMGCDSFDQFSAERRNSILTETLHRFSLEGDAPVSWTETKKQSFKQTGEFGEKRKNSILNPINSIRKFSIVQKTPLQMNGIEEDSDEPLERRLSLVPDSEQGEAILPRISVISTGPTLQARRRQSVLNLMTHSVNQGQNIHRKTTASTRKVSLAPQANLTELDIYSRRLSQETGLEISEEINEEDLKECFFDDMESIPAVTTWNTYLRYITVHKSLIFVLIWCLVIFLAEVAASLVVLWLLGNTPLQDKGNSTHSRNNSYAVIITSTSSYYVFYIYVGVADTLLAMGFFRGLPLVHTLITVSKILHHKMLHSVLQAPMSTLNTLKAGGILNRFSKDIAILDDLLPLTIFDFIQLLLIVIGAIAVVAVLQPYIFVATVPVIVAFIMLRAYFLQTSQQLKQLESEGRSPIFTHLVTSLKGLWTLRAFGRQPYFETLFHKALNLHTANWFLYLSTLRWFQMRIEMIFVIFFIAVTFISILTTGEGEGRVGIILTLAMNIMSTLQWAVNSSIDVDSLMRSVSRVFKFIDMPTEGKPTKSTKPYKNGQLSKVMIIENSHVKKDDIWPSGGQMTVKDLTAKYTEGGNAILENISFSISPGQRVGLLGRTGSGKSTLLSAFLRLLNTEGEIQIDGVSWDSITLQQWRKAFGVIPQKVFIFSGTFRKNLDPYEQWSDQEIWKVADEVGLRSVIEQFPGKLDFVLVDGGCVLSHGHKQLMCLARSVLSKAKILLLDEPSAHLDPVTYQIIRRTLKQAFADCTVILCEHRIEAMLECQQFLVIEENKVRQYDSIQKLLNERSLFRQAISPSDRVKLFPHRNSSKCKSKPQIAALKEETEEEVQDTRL
experiment-notes: Ussing chamber assay of CFTR-mediated short-circuit currents, Assay A (0.1 μM to 25 μM, 6 concentrations)
Type: cell-based
recorded-conditions: with 33 nM potentiator and 18 μM Tezacaftor, 20% human serum
pEC50: −log10 of the molar value.

Req: Please respond with reported pEC50 (system CFTR (F508del/MF-HBE cells) (Homo sapiens, UniProt P13569, DEL508-508)) for Cc1cccc(C)c1-c1cc2nc(n1)NS(=O)(=O)c1cccc(c1)C(=O)N(Cc1nc3c(cc1F)cc(C(C)C)n3C)[C@H](CC13CC(C1)C3)CO2 [Compound I-87] .
Resp: > 6.00

Req: Please respond with reported pEC50 (system CFTR (F508del/MF-HBE cells) (Homo sapiens, UniProt P13569, DEL508-508)) for Cc1cccc(C)c1-c1cc2nc(n1)NS(=O)(=O)c1cccc(c1)C(=O)N(Cc1cnc3oc(C(C)C)cc3n1)[C@@H](CCC1(C)CC1)CO2 (stereo in doubt) [Compound I-70] .
Resp: > 6.00

Req: Please respond with reported pEC50 (system CFTR (F508del/MF-HBE cells) (Homo sapiens, UniProt P13569, DEL508-508)) for Cc1cccc(C)c1-c1cc2nc(n1)NS(=O)(=O)c1cccc(c1)C(=O)N(Cc1cnc3nc(C(C)C)n(C)c3n1)[C@H](CC1(C)CC1)CO2 [Compound I-75] .
Resp: > 6.00

Req: Please respond with reported pEC50 (system CFTR (F508del/MF-HBE cells) (Homo sapiens, UniProt P13569, DEL508-508)) for Cc1cccc(C)c1-c1cc2nc(n1)NS(=O)(=O)c1cccc(c1)C(=O)N(Cc1cnc3oc(C(C)C)cc3n1)[C@H](CCC1(C)CCC1)CO2 [Compound I-13] .
Resp: > 6.00

Req: Please respond with reported pEC50 (system CFTR (F508del/MF-HBE cells) (Homo sapiens, UniProt P13569, DEL508-508)) for Cc1cccc(C)c1-c1cc2nc(n1)NS(=O)(=O)c1cccc(c1)C(=O)N(Cc1cnc3oc(C)c(C4CC4)c3n1)[C@H](COC(C)C)CO2 [Compound I-26] .
Resp: > 6.00

Req: Please respond with reported pEC50 (system CFTR (F508del/MF-HBE cells) (Homo sapiens, UniProt P13569, DEL508-508)) for Cc1cccc(C)c1-c1cc2nc(n1)NS(=O)(=O)c1cccc(c1)C(=O)N(Cc1cnc3c(n1)CC(C(C)C)O3)[C@H](CC1(C)CC1)CO2 (single isomer, unassigned) [III-13] .
Resp: > 6.00

Req: Please respond with reported pEC50 (system CFTR (F508del/MF-HBE cells) (Homo sapiens, UniProt P13569, DEL508-508)) for Cc1cccc(C)c1-c1cc2nc(n1)NS(=O)(=O)c1cccc(c1)C(=O)N(Cc1cnc3cc(C(C)C)n(C)c3n1)[C@H](C[C@H]1CCCCO1)CO2 [Compound I-3] .
Resp: > 6.00

Req: Please respond with reported pEC50 (system CFTR (F508del/MF-HBE cells) (Homo sapiens, UniProt P13569, DEL508-508)) for Cc1cccc(C)c1-c1cc2nc(n1)NS(=O)(=O)c1cccc(c1)C(=O)N(Cc1cnc3oc(C(C)C)cc3n1)[C@H](CC1CCCCC1)CO2 [Compound I-9] .
Resp: > 6.00

Req: Please respond with reported pEC50 (system CFTR (F508del/MF-HBE cells) (Homo sapiens, UniProt P13569, DEL508-508)) for Cc1cccc(C)c1-c1cc2nc(n1)NS(=O)(=O)c1cccc(c1)C(=O)N(Cc1cnc3oc(C4(C)CC4)cc3n1)[C@H](CC13CC(C1)C3)CO2 [Compound I-97] .
Resp: > 6.00
